Recorded TGI by entry
system: UACC-62 melanoma; assay: NCI tumour cell line growth inhibition, 48 h
Measured Metric: TGI

Structure Notation: O=[N+]([O-])c1cccc(-c2cn3c(n2)Cc2ccccc2C3)c1
Target Or System: UACC-62 melanoma
Measured Metric: TGI
Reported Result: > 100 µM

Structure Notation: COc1cc2c(c(OC)c1OC)C(=O)[C@@H](O)[C@H]2NC(N)=O
Target Or System: UACC-62 melanoma
Measured Metric: TGI
Reported Result: > 100 µM

Structure Notation: COc1ccc2c(CCCc3ccc(Cl)cc3Cl)c3[n+](cc2c1OC)CCc1cc2c(cc1-3)OCO2
Target Or System: UACC-62 melanoma
Measured Metric: TGI
Reported Result: 1.38 µM

Structure Notation: C(=C\c1ccncc1)/c1ccncc1
Target Or System: UACC-62 melanoma
Measured Metric: TGI
Reported Result: > 100 µM

Structure Notation: COC(=O)[C@]12C3=C(O)C(=O)C[C@H]1OC[C@H]2C=CC3
Target Or System: UACC-62 melanoma
Measured Metric: TGI
Reported Result: > 100 µM

Structure Notation: CN(C)CCNC(=O)c1cccc2c1Oc1cccc([N+](=O)[O-])c1O2
Target Or System: UACC-62 melanoma
Measured Metric: TGI
Reported Result: 33 µM
